# assay-overview: Food consumption, body and liver weight in cholesterol-fed rabbits
# Format: in vivo, female New Zealand White rabbits
# test-settings: diet 0.4%, 7 days
measured-metric: food (grams eaten per day per rabbit), percent of control (%)

>>> df
                            smiles_notation  test_result
0   CC(C)(C)c1cc(OC[Si](C)(C)c2ccccc2)ccc1O          100
1  CC(=O)Oc1ccc(OC[Si](C)(C)c2ccccc2)cc1C(C)(C)C          100
2  COc1ccc([Si](C)(C)COc2ccc(O)c(C(C)(C)C)c2)cc1           99
3  CC(C)(C)c1cc(OC[Si](C)(c2ccccc2)c2ccccc2)cc(C(C)(C)C)c1O           98
4  CN(C)c1ccc([Si](C)(C)COc2cc(C(C)(C)C)c(O)c(C(C)(C)C)c2)cc1          100
5  CC(C)(C)c1cc(OC[Si](C)(C)c2ccccc2)c(C(C)(C)C)cc1O           69
6  CC(C)(C)c1cc(OC[Si](C)(C)c2ccc(C(F)(F)F)cc2)cc(C(C)(C)C)c1O          100
7  CC(C)(C)c1cc(OC[Si](C)(c2ccccc2)c2ccccc2)ccc1O          100
8  COc1ccc([Si](C)(COc2cc(C(C)(C)C)c(O)c(C(C)(C)C)c2)c2ccc(OC)cc2)cc1          100

----------
# assay-overview: Animal parameters (food, body weight, liver weight, mortality) in rats
# Format: in vivo, male Sprague-Dawley rats
# test-settings: rat, diet 0.3%, 4 days
measured-metric: lw/bw (liver weight/body weight), percent of control (%)

>>> print(df.to_string())
                             smiles_notation  test_result
 0  CC(C)(C)c1cc(OC[Si](C)(C)c2ccc(C(F)(F)F)cc2)cc(C(C)(C)C)c1O          113
 1    Cc1cc(OC[Si](C)(C)c2ccccc2)c(C)c(C)c1O          118
 2   CC(C)(C)c1cc(SC[Si](C)(C)c2ccccc2)ccc1O          123
 3  CC(C)(C)c1cc(OC[Si](C)(c2ccccc2)c2ccccc2)cc(C(C)(C)C)c1O          107
 4  CC(=O)Oc1cc(C(C)(C)C)c(OC[Si](C)(C)c2ccccc2)cc1C(C)(C)C          104
 5  CC(C)(C)c1cc(SC[Si](C)(C)c2ccccc2)cc(C(C)(C)C)c1OC(=O)CCC(=O)O           96
 6  CC(=O)Oc1c(C(C)(C)C)cc(OC[Si](C)(C)c2ccccc2)cc1C(C)(C)C          105
 7  CC(C)(C)c1cc(OC[Si](C)(C)c2cccc(C(F)(F)F)c2)cc(C(C)(C)C)c1O          120
 8  CC(C)(C)c1cc(OC[Si](C)(C)c2ccccc2)c(C(C)(C)C)cc1O          103
 9  CC(C)(C)c1cc(OC[Si](C)(C)c2ccccc2)ccc1OC(=O)CCC(=O)O          118
10  CC(=O)Oc1c(C)cc(OC[Si](C)(C)c2ccccc2)c(C)c1C          120
11  CN(C)c1ccc([Si](C)(C)COc2cc(C(C)(C)C)c(O)c(C(C)(C)C)c2)cc1          120
12  CC(=O)Oc1ccc(OC[Si](C)(C)c2ccccc2)cc1C(C)(C)C          118
13   CC(C)(C)c1cc(OC[Si](C)(C)c2ccccc2)ccc1O          130
14  COc1ccc([Si](C)(C)COc2ccc(O)c(C(C)(C)C)c2)cc1          132
15  CC(C)(C)c1cc(OC[Si](C)(C)c2ccccc2)cc(C(C)(C)C)c1OC(=O)CCC(=O)O          110

----------
# assay-overview: HPLC quantitation of compound and metabolite concentration in rat serum and liver
# Type: in vivo, male Sprague-Dawley rats
# test-settings: po; rat liver, diet 0.3%, 4 days; read-out: Liver Parent = parent compound concentration
measured-metric: log10 concentration at 96 h (log10 of the value in ng/g)

>>> print(df.to_string())
                            smiles_notation  test_result
0  CC(C)(C)c1cc(OC[Si](C)(C)c2ccc(C(F)(F)F)cc2)cc(C(C)(C)C)c1O         5.27
1  CC(C)(C)c1cc(OC[Si](C)(C)c2cccc(C(F)(F)F)c2)cc(C(C)(C)C)c1O         5.11
2  COc1ccc([Si](C)(C)COc2ccc(O)c(C(C)(C)C)c2)cc1         3.43
3  CC(C)(C)c1cc(OC[Si](C)(c2ccccc2)c2ccccc2)cc(C(C)(C)C)c1O         4.65
4  CC(C)(C)c1cc(OC[Si](C)(C)c2ccccc2)c(C(C)(C)C)cc1O         4.64
5  CC(=O)Oc1c(C(C)(C)C)cc(OC[Si](C)(C)c2ccccc2)cc1C(C)(C)C         4.35
6   CC(C)(C)c1cc(SC[Si](C)(C)c2ccccc2)ccc1O         2.70
7  CN(C)c1ccc([Si](C)(C)COc2cc(C(C)(C)C)c(O)c(C(C)(C)C)c2)cc1         4.78

----------
// reported ALT (alanine aminotransferase), percent of control for each item listed
# assay-overview: Clinical chemistries in serum of rats
# Type: in vivo, male Sprague-Dawley rats
# test-settings: rat serum, diet 0.3%, 4 days
# Protocol: A typical experiment consisted of 4-6 groups of rats (N=5 per group) with 1 group being a control which received no MDL compound and the other groups being treated with 0.3% MDL compound. Some of the compounds were either repeated at 0.3% or evaluated again at the lower dose of 0.1%. […] Body weights and liver weights were recorded in grams. Food consumption was recorded as grams.cndot.day^-1.cndot.rat^-1. Deaths were recorded as mortality. […]
measured-metric: ALT (alanine aminotransferase), percent of control (%)

>>> print(df.to_string())
                             smiles_notation  test_result
 0   CC(C)(C)c1cc(SC[Si](C)(C)c2ccccc2)ccc1O          109
 1   CC(C)(C)c1cc(OC[Si](C)(C)c2ccccc2)ccc1O          127
 2  CC(=O)Oc1ccc(OC[Si](C)(C)c2ccccc2)cc1C(C)(C)C          156
 3  CC(C)(C)c1cc(OC[Si](C)(c2ccccc2)c2ccccc2)cc(C(C)(C)C)c1O           91
 4  CN(C)c1ccc([Si](C)(C)COc2cc(C(C)(C)C)c(O)c(C(C)(C)C)c2)cc1          106
 5  CC(=O)Oc1c(C(C)(C)C)cc(OC[Si](C)(C)c2ccccc2)cc1C(C)(C)C          145
 6  CC(=O)Oc1c(C)cc(OC[Si](C)(C)c2ccccc2)c(C)c1C          133
 7  CC(=O)Oc1cc(C(C)(C)C)c(OC[Si](C)(C)c2ccccc2)cc1C(C)(C)C           89
 8  CC(C)(C)c1cc(SC[Si](C)(C)c2ccccc2)cc(C(C)(C)C)c1OC(=O)CCC(=O)O          126
 9  CC(C)(C)c1cc(OC[Si](C)(C)c2ccccc2)c(C(C)(C)C)cc1O          112
10  CC(C)(C)c1cc(OC[Si](C)(C)c2ccccc2)ccc1OC(=O)CCC(=O)O          107
11  CC(C)(C)c1cc(OC[Si](C)(C)c2ccc(C(F)(F)F)cc2)cc(C(C)(C)C)c1O          106
12    Cc1cc(OC[Si](C)(C)c2ccccc2)c(C)c(C)c1O          113
13  CC(C)(C)c1cc(OC[Si](C)(C)c2cccc(C(F)(F)F)c2)cc(C(C)(C)C)c1O          113
14  COc1ccc([Si](C)(C)COc2ccc(O)c(C(C)(C)C)c2)cc1          141
15  CC(C)(C)c1cc(OC[Si](C)(C)c2ccccc2)cc(C(C)(C)C)c1OC(=O)CCC(=O)O          132

----------
# assay-overview: HPLC quantitation of compound and metabolite concentration in rabbit serum and liver
# Type: in vivo, female New Zealand White rabbits
# test-settings: po; rabbit serum, diet 0.4%, 7 days; read-out: Serum Parent = parent compound concentration
// reported concentration at 168 h for each item listed
measured-metric: concentration at 168 h (ng/mL)

In [3]: df
Out[3]:
                                   compound  test_result
0  CN(C)c1ccc([Si](C)(C)COc2cc(C(C)(C)C)c(O)c(C(C)(C)C)c2)cc1 [MDL 104,556]         4900
1  CC(C)(C)c1cc(OC[Si](C)(C)c2ccccc2)c(C(C)(C)C)cc1O [MDL 104,962]         3800
2  CC(C)(C)c1cc(OC[Si](C)(C)c2ccc(C(F)(F)F)cc2)cc(C(C)(C)C)c1O [MDL 105,975]        13800
3  CC(C)(C)c1cc(OC[Si](C)(c2ccccc2)c2ccccc2)cc(C(C)(C)C)c1O [MDL 104,599]        14800
4  COc1ccc([Si](C)(C)COc2ccc(O)c(C(C)(C)C)c2)cc1 [MDL 106,834]         2900
